Can you tell me melting point for the items I'm about to list?

Query: For the compound COc1ccc(C2=Nn3c(nnc3-c3cc(OC)c(OC)c(OC)c3)SC2)cc1N , give its reported melting point.
Result: 112 to 115 °C

Query: For the compound COc1ccc(-c2nnc3n2N=C(c2ccc(Cl)cc2)CS3)c(OC)c1OC , give its reported melting point.
Result: 88 to 90 °C

Query: For the compound COc1ccc(C2=Nn3c(nnc3-c3ccc(OC)c(OC)c3OC)SC2)cc1O , give its reported melting point.
Result: 88 to 89 °C

Query: For the compound COc1ccc(C2=Nn3c(nnc3-c3cc(OC)c(OC)c(OC)c3)SC2)cc1F , give its reported melting point.
Result: 115 to 118 °C

Query: For the compound COc1ccc(C2=Nn3c(nnc3-c3cc(OC)c(OC)c(OC)c3)SC2)cc1O , give its reported melting point.
Result: 95 to 97 °C

Query: For the compound COc1cc(-c2nnc3n2N=C(c2ccc(SC)cc2)CS3)cc(OC)c1OC , give its reported melting point.
Result: 92 to 94 °C

Query: For the compound COc1ccc(-c2nnc3n2N=C(c2ccc(OC)c(N)c2)CS3)cc1 , give its reported melting point.
Result: 214 to 215 °C

Query: For the compound COc1ccc(C2=Nn3c(nnc3-c3cc(OC)c(OC)c(OC)c3)SC2)cc1[N+](=O)[O-] , give its reported melting point.
Result: 212 to 213 °C

Query: For the compound COc1ccc(C2=Nn3c(nnc3-c3ccc(OC)c(OC)c3OC)SC2)cc1F , give its reported melting point.
Result: 92 to 94 °C

Query: For the compound COc1ccc(-c2nnc3n2N=C(c2ccc(F)c(F)c2)CS3)c(OC)c1OC , give its reported melting point.
Result: 95 to 97 °C

* * *

Can you tell me melting point for the items I'm about to list?

Query: For the molecule COc1ccc(-c2nnc3n2N=C(c2ccc(F)cc2)CS3)c(OC)c1OC [Compound 4a] , give its reported melting point.
Result: 92 to 94 °C

Query: For the molecule COc1ccc(C2=Nn3c(nnc3-c3cc(OC)c(OC)c(OC)c3)SC2)cc1OCc1ccccc1 [Compound 5h] , give its reported melting point.
Result: 93 to 94 °C

Query: For the molecule COc1ccc(C2=Nn3c(nnc3-c3ccc(OC)c(OC)c3OC)SC2)cc1N [Compound 4j] , give its reported melting point.
Result: 93 to 94 °C

Query: For the molecule COc1ccc(C2=Nn3c(nnc3-c3ccc4c(c3)OCO4)SC2)cc1F [Compound 6a] , give its reported melting point.
Result: 93 to 95 °C

Query: For the molecule COc1cc(-c2nnc3n2N=C(c2ccc(Cl)cc2)CS3)cc(OC)c1OC [Compound 5a] , give its reported melting point.
Result: 125 to 127 °C

* * *

Can you tell me melting point for the items I'm about to list?

Query: For the molecule COc1ccc(-c2nnc3n2N=C(c2ccc(Br)cc2)CS3)c(OC)c1OC , give its reported melting point.
Result: 96 to 98 °C

Query: For the molecule COc1ccc(-c2nnc3n2N=C(c2ccc(C(F)(F)F)cc2)CS3)c(OC)c1OC , give its reported melting point.
Result: 95 to 96 °C

Query: For the molecule COc1ccc(C2=Nn3c(nnc3-c3ccc4c(c3)OCO4)SC2)cc1N , give its reported melting point.
Result: 88 to 90 °C

Query: For the molecule COc1cccc(-c2nnc3n2N=C(c2ccc(OC)c([N+](=O)[O-])c2)CS3)c1 , give its reported melting point.
Result: 207 to 208 °C

Query: For the molecule COc1ccc(C2=Nn3c(nnc3-c3ccc(OC)c(OC)c3OC)SC2)cc1 , give its reported melting point.
Result: 92 to 95 °C

Query: For the molecule COc1cccc(-c2nnc3n2N=C(c2ccc(OC)c(N)c2)CS3)c1 , give its reported melting point.
Result: 138 to 140 °C

Query: For the molecule COc1ccc(C2=Nn3c(nnc3-c3ccc(OC)c(OC)c3OC)SC2)cc1OCc1ccccc1 , give its reported melting point.
Result: 85 to 86 °C

Query: For the molecule COc1ccc(C2=Nn3c(nnc3-c3ccc4c(c3)OCO4)SC2)cc1[N+](=O)[O-] , give its reported melting point.
Result: 90 to 92 °C
